# Tested system: Telomerase reverse transcriptase (Homo sapiens)
# Test details: Inhibition of telomerase in human A2780 cells by TRAP assay
Examples of compounds with documented IC50 follow.
# value in nM; strip the unit string

Answered examples (3):
Nc1ccc(Nc2c3cc(NC(=O)CCN4CCCC4)ccc3nc3ccc(NC(=O)CCN4CCCC4)cc23)cc1 | 200
CN(C)c1ccc(Nc2c3ccc(NC(=O)CCN4CCCC4)cc3nc3ccc(NC(=O)CCN4CCCC4)cc23)cc1 | 170
CCN(CC)CCCCCCNC(=O)CCCCC(=O)Nc1ccc(Nc2c3ccc(NC(=O)CCN4CCCC4)cc3nc3cc(NC(=O)CCN4CCCC4)ccc23)cc1 | 80

# next compound below
Suppose we examine the compound CCN(CC)CCC(=O)Nc1ccc2c(O)c3cc(NC(=O)CCN(CC)CC)ccc3nc2c1 ; what IC50 value has been reported?
700

====

# Tested system: Telomerase reverse transcriptase (Homo sapiens, UniProt O14746)
# Sequence (O14746 whole entry): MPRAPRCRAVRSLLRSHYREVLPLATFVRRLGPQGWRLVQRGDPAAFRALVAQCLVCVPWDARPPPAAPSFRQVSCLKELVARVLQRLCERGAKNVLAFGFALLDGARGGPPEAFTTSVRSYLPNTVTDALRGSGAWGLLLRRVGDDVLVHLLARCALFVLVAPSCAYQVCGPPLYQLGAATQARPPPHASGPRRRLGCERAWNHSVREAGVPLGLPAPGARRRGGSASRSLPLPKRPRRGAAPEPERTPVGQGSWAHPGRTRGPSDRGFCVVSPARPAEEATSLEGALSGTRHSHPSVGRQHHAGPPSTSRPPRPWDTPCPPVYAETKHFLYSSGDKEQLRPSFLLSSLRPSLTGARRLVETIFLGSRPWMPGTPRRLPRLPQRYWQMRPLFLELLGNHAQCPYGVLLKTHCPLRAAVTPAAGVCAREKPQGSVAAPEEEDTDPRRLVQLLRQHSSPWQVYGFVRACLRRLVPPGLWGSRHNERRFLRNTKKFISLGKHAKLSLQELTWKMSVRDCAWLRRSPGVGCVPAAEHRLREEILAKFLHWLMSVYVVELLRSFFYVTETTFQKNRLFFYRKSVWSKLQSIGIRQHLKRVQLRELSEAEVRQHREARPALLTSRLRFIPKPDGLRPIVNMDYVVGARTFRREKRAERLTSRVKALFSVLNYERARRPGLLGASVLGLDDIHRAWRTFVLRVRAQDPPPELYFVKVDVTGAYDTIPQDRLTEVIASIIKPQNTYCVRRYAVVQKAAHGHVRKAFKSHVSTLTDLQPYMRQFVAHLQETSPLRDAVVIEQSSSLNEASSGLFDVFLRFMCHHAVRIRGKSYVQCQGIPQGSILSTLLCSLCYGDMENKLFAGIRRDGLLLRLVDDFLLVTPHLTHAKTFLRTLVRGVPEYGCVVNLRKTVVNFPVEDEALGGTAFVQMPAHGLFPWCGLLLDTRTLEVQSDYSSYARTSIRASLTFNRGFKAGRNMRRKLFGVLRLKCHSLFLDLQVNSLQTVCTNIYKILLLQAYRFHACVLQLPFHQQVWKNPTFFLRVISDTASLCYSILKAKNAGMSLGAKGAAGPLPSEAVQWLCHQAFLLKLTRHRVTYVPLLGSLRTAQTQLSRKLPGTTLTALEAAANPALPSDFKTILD
# Test details: Inhibition of telomerase in human A2780 cells by TRAP assay
Threshold 2 µM: IC50 strictly smaller gives satisfied, otherwise not satisfied.

Example entries begin here.
CN(C)CCCNc1c2ccc(NC(=O)CCN3CCCC3)cc2nc2ccc(NC(=O)CCN3CCCC3)cc12 | satisfied
O=C(CCN1CCCC1)Nc1ccc2nc3ccc(NC(=O)CCN4CCCC4)cc3c(Nc3ccccc3)c2c1 | satisfied

Note: attention shifts to another entry.
Hi there! Is IC50 for COc1cccc(Nc2c3cc(NC(=O)CCN4CCCC4)ccc3nc3ccc(NC(=O)CCN4CCCC4)cc23)c1 below 2 µM, do you know?
not satisfied

====

# Tested system: Telomerase reverse transcriptase (Homo sapiens, UniProt O14746)
# Test details: Inhibition of telomerase in human A2780 cells by TRAP assay
# IC50 per record follows
Just the number plus its unit, please.

In the examples that follow, each entry is paired with its recorded IC50.
O=C(CCN1CCCC1)Nc1ccc2nc3ccc(NC(=O)CCN4CCCC4)cc3c(Nc3ccccc3O)c2c1 | 1030 nM
O=C(CCCCC(=O)N1CCCC1)Nc1ccc(Nc2c3ccc(NC(=O)CCN4CCCC4)cc3nc3cc(NC(=O)CCN4CCCC4)ccc23)cc1 | 318 nM
Nc1ccccc1Nc1c2cc(NC(=O)CCN3CCCC3)ccc2nc2ccc(NC(=O)CCN3CCCC3)cc12 | 170 nM
CN(C)c1ccc(Nc2c3ccc(NC(=O)CCN4CCCC4)cc3nc3cc(NC(=O)CCN4CCCC4)ccc23)cc1 | 100 nM
C[N+]1(CCC(=O)Nc2ccc3nc4ccc(NC(=O)CC[N+]5(C)CCNCC5)cc4c(O)c3c2)CCNCC1 | 1900 nM
Nc1cccc(Nc2c3cc(NC(=O)CCN4CCCC4)ccc3nc3ccc(NC(=O)CCN4CCCC4)cc23)c1 | 1090 nM
CCN(CC)CCNC(=O)CCCCC(=O)Nc1ccc(Nc2c3ccc(NC(=O)CCN4CCCC4)cc3nc3cc(NC(=O)CCN4CCCC4)ccc23)cc1 | 98 nM

Continue with the molecule presented below.
Reported IC50 for O=C(CCN1CCCC1)Nc1ccc2c(Nc3ccccc3)c3cc(NC(=O)CCN4CCCC4)ccc3nc2c1 : what is it?
1330 nM

====

# Tested system: Telomerase reverse transcriptase (Homo sapiens, UniProt O14746)
# Test details: Inhibition of telomerase in human A2780 cells by TRAP assay
Measure: IC50 (µM)
The reply should be a number in µM, with the unit left off.

Consider the worked cases shown below.
CN(C)CCNc1c2cc(NC(=O)CCN3CCCC3)ccc2nc2ccc(NC(=O)CCN3CCCC3)cc12 | 0.57
CC1CCCCN1CCC(=O)Nc1ccc2c(=O)c3ccc(NC(=O)CCN4CCCCC4C)cc3[nH]c2c1 (centres undefined) | 2.3
Nc1ccccc1Nc1c2ccc(NC(=O)CCN3CCCC3)cc2nc2ccc(NC(=O)CCN3CCCC3)cc12 | 0.11

Below: the item to evaluate.
Quick check: IC50 on Telomerase reverse transcriptase (Homo sapiens, UniProt O14746), item CN(C)c1ccc(Nc2c3cc(NC(=O)CCN4CCCC4)ccc3nc3ccc(NC(=O)CCN4CCCC4)cc23)cc1 ?
0.5

====

# Tested system: Telomerase reverse transcriptase (Homo sapiens)
# Test details: Inhibition of telomerase in human A2780 cells by TRAP assay
Measure: pIC50
Conceptually, pIC50 converts a concentration in mol/L into minus its log10.

Example molecules with recorded pIC50:
COc1ccc(Nc2c3cc(NC(=O)CCN4CCCC4)ccc3nc3ccc(NC(=O)CCN4CCCC4)cc23)cc1 | 6.34
CC1CCN(CCC(=O)Nc2ccc3c(O)c4cc(NC(=O)CCN5CCC(C)CC5)ccc4nc3c2)CC1 | 6.70

Proceed to the following item.
# pIC50 lookup, item O=C(CCN1CCCCC1)Nc1ccc2nc3ccc(NC(=O)CCN4CCCCC4)cc3c(O)c2c1
5.72

====

# Tested system: Telomerase reverse transcriptase (Homo sapiens)
# Test details: Inhibition of telomerase in human A2780 cells by TRAP assay
Measure: IC50 (nM)
Could you give me the number in nM? Just the number is fine.

CCC1CCCCN1CCC(=O)Nc1ccc2c(=O)c3ccc(NC(=O)CCN4CCCCC4CC)cc3[nH]c2c1 (stereo not given) | 2300
Nc1cccc(Nc2c3ccc(NC(=O)CCN4CCCC4)cc3nc3ccc(NC(=O)CCN4CCCC4)cc23)c1 | 210

Look up IC50 for this molecule: CC1CCCCN1CCC(=O)Nc1ccc2nc3ccc(NC(=O)CCN4CCCCC4C)cc3c(O)c2c1 (stereo not given)
1500

And what about the molecule CC1CCN(CCC(=O)Nc2ccc3c(=O)c4ccc(NC(=O)CCN5CCC(C)CC5)cc4[nH]c3c2)CC1 ?
1700

Query CN(C)CCNc1c2ccc(NC(=O)CCN3CCCC3)cc2nc2ccc(NC(=O)CCN3CCCC3)cc12 next
270
